Source: paper PMC6273627

Below, each of the compounds is paired with its reported melting point value.
RESULT_TYPE: melting point

COMPOUND | RESULT_TYPE | RESULT
O=C(CN1CCN(c2ncccn2)CC1)c1cn(S(=O)(=O)c2cccc3ccccc23)c2ccccc12 [Compound 3k] | melting point | 88 to 89 °C
O=S(=O)(c1cccc2ccccc12)n1cc(C(O)CN2CCN(c3ccccn3)CC2)c2ccccc21 (stereo not shown) [Compound 4i] | melting point | 80 to 81 °C
O=S(=O)(c1ccc(I)cc1)n1cc(C(O)CN2CCN(c3ccccn3)CC2)c2ccccc21 (stereo not shown) [Compound 4f] | melting point | 157 to 158 °C
O=C(CN1CCN(c2ncccn2)CC1)c1cn(S(=O)(=O)c2ccc(F)cc2)c2ccccc12 [Compound 3e] | melting point | 145 to 146 °C

* * *

- EXPERIMENTAL_TARGET: cloned human 5-HT6-expressing cell line (HTS111RTA) (Homo sapiens, UniProt P50406)
- Sequence (P50406 whole entry): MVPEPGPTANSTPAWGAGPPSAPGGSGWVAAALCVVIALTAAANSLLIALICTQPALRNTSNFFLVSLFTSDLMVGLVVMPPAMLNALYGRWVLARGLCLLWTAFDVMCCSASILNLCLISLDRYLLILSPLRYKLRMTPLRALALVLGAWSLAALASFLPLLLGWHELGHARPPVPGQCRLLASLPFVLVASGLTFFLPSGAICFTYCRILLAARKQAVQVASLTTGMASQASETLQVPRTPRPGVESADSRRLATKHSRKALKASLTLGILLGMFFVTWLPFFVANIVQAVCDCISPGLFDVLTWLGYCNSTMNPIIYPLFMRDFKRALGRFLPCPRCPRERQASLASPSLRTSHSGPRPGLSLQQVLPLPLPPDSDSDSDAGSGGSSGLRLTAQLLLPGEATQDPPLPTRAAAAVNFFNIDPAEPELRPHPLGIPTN
- PROTOCOL_DETAILS: intracellular calcium mobilization assay (antagonism of 2-Me 5-HT)
- MEASUREMENT_PARAMETERS: antagonism of 2-Me-5-HT (500 nM) intracellular calcium mobilization
pIC50: −log10 of the molar value.
Below, each of the compounds is paired with its reported pIC50 value.
RESULT_TYPE: pIC50

COMPOUND | EXPERIMENTAL_TARGET | NUMERIC_RESULT
O=S(=O)(c1ccc(I)cc1)n1cc(C(O)CN2CCN(c3ncccn3)CC2)c2ccccc21 (stereo not shown) | cloned human 5-HT6-expressing cell line (HTS111RTA) (Homo sapiens, UniProt P50406) | 7.12
COc1ccccc1N1CCN(CC(O)c2cn(S(=O)(=O)c3ccc(I)cc3)c3ccccc23)CC1 (stereo not shown) | cloned human 5-HT6-expressing cell line (HTS111RTA) (Homo sapiens, UniProt P50406) | 6.69
O=S(=O)(c1cccc2ccccc12)n1cc(C(O)CN2CCN(c3ccccn3)CC2)c2ccccc21 (stereo not shown) | cloned human 5-HT6-expressing cell line (HTS111RTA) (Homo sapiens, UniProt P50406) | 6.40
O=S(=O)(c1cccc2ccccc12)n1cc(C(O)CN2CCN(c3ncccn3)CC2)c2ccccc21 (stereo not shown) | cloned human 5-HT6-expressing cell line (HTS111RTA) (Homo sapiens, UniProt P50406) | 6.16
Cc1ccc(S(=O)(=O)n2cc(C(O)CN3CCN(c4ccccn4)CC3)c3ccccc32)cc1 (stereo not shown) | cloned human 5-HT6-expressing cell line (HTS111RTA) (Homo sapiens, UniProt P50406) | 6.11
O=S(=O)(c1ccc(I)cc1)n1cc(C(O)CN2CCN(c3ccccn3)CC2)c2ccccc21 (stereo not shown) | cloned human 5-HT6-expressing cell line (HTS111RTA) (Homo sapiens, UniProt P50406) | 4.61
COc1ccccc1N1CCN(CC(O)c2cn(S(=O)(=O)c3cccc4ccccc34)c3ccccc23)CC1 (stereo not shown) | cloned human 5-HT6-expressing cell line (HTS111RTA) (Homo sapiens, UniProt P50406) | 7.49

* * *

Below, each of the molecules is paired with its reported melting point value.

MOLECULE | melting point
O=S(=O)(c1cccc2ccccc12)n1cc(C(O)CN2CCN(c3ncccn3)CC2)c2ccccc21 (stereo not drawn) | 82 to 83 °C
O=C(CBr)c1c[nH]c2ccccc12 | 160.3 to 161 °C
O=S(=O)(c1ccc(I)cc1)n1cc(C(O)CN2CCN(c3ncccn3)CC2)c2ccccc21 (stereo not drawn) | 171 to 172 °C
COc1ccccc1N1CCN(CC(=O)c2cn(S(=O)(=O)c3ccc(I)cc3)c3ccccc23)CC1 | 182 to 183 °C
O=C(CN1CCN(c2ncccn2)CC1)c1cn(S(=O)(=O)c2ccc(Cl)cc2)c2ccccc12 | 168 to 169 °C
Cc1ccc(S(=O)(=O)n2cc(C(=O)CN3CCN(c4ncccn4)CC3)c3ccccc32)cc1 | 133 to 134 °C
